assay: Oral bioavailability studies in dogs; assay type: in vivo; settings: both sexes, beagle, dog, plasma; unformulated solid in a capsule dosage form, 5 mg/kg oral dose in dogs
QUANTITY: bioavailability

What value of bioavailability has been recorded for this entry: `CC(C)c1nc(CN(C)C(=O)N[C@H](C(=O)N[C@@H](Cc2ccccc2)C[C@H](O)[C@H](Cc2ccccc2)NC(=O)OCc2cncs2)C(C)C)cs1` < 2%
